I'd be grateful if you could share measured abundance fitness for these entries.
B1: Double-stranded RNA-binding protein Staufen homolog 1, residues 183 to 249; numbered along this chain, O95793 (parent)
chain: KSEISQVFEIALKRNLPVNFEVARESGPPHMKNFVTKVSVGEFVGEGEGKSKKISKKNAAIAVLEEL

# Variants of: B1
# PROTOCOL_DESCRIPTION: abundance fitness (aPCA) (normalised: wild type 0, dead -1); higher = more abundant; growth selection in yeast, the domain comes from the species named
# CONDITIONS: Homo sapiens

Request: Need abundance fitness, item `E48D`
Result: -0.427

Request: Record: `E66K`
Result: 0.216

Request: Record: `G41M`
Result: -0.888

Request: Record: `E48F`
Result: -0.01

Request: Record: `P17M`
Result: -0.172

Request: Record: `I54S`
Result: -0.066

Request: Record: `V44R`
Result: -0.051

Request: Record: `H30C`
Result: -0.207

Request: Record: `E21M`
Result: -0.181

Request: Record: `E46G`
Result: -0.449
